Target: T1, HLA-A0201 on T2 cells (human)
T1 construct: MHC class I molecule on T2 cells; also called HLA-A0201 molecule; HLA-A2
Assay: T2 cell HLA-A0201 assay, flow cytometry with FITC anti-HLA-A0201 mAb, peptide 100 µM
property name: Average fluorescence intensity

// sample TLISSLRPI (Made by solid phase synthesis, purified by reverse phase HPLC, purity >90%) [wild-type peptide TLISSLRPI] , its Average fluorescence intensity was 672

// TLISSLMPV [variant peptide TLISSLMPV] : Average fluorescence intensity value = 714

The reported value for TMISSLMPI [variant peptide TMISSLMPI] in terms of Average fluorescence intensity is 701

Reported Average fluorescence intensity of TLISSLMPL [variant peptide TLISSLMPL] : 692

Reference source for all entries: patent US20200024316A1
